Assay: NCI Yeast Anticancer Drug Screen. Data for the sgs1 mgt1 strain (AID 161);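 further: 0% = growth of cultures given vehicle only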
Settings: S. cerevisiae sgs1 mgt1 strain, at 50.0 µM, active compounds read high
About 79,000 compounds went through this panel and 15% of them were active in at least one assay; those are over-represented in the sample as a whole.
Property Name: growth inhibition (%)

>>> df
                                    compound  unit_name  number
 0  COC(=O)C(=O)c1c(C(=O)OC)nc2nnc(N)n2c1-c1ccc(O)c(OC)c1          %   -2.65
 1   CCC(C)OC(=S)S.[Ag] (stereo unspecified)          %     0.7
 2  CC(C)=CC1C(CO)C1(C)C (stereo unspecified)          %    23.8
 3                       CCCCCC(=O)NC1CCCCC1          %    8.15
 4     Nc1nc2nc(C(=O)O)c(=S)[nH]c2c(=O)[nH]1          %     1.9
 5  CC(=O)Nc1ccc(S(=O)(=O)NNC(=O)NNS(=O)(=O)c2ccc(NC(C)=O)cc2)cc1          %   -11.5
 6                               NC(N)=NCCCS          %    14.3
 7       O=Cc1ccc(-c2ccc([N+](=O)[O-])cc2)o1          %    -9.5
 8                   COC(=O)CCc1cccnc1/C=N/O          %   -11.8
 9  CC(=O)OCC(C)CCC(C)COC(C)=O (stereo unspecified)          %   -21.8
10  COC(=O)C1OC1(C)c1ccccc1 (stereo unspecified)          %   -0.25
11              O=C1CCC(=O)N2C(=O)CCC(=O)N12          %   -18.9
12        O=C1Cc2c([nH]c3ccccc23)-c2ccccc2N1          %    13.8
13             Cc1c(Cl)cc([N+](=O)[O-])cc1Cl          %   -11.8
14  CCOC(=O)/C(=C\c1ccnc2ccccc12)P(=O)(OCC)OCC          %    15.4
15         CCCN(CCC)NC(=O)c1ccc(N=NN(C)C)cc1          %     8.4
16  O=S1(=O)C2C=CCC1C(Cl)CC2 (stereo unspecified)          %      36
17  CC1(C)OCC2OC(O)C(OS(=O)(=O)c3ccc([N+](=O)[O-])cc3)C2O1 (stereo unspecified)          %    -0.5
18  Cc1cc([N+](=O)[O-])ccc1N=Nc1ccc([N+](=O)[O-])cc1C          %     1.2
19                 Clc1ccc2c(c1)nnn2OC1CCCC1          %   -11.1
20    CSc1nc(=O)[nH]c2c1[nH]c(=O)n2-c1ccccc1          %   -6.35
21                      O=C(c1ccccc1)c1cccs1          %   -12.7
22  CCCCCCCCCCCCCC(=O)OCC(=O)c1ccc(-c2ccccc2)cc1          %    32.5
23  COC(=O)C1C=CN(N(C)C)C2=C1C(=O)c1c(O)cccc1C2=O (stereo unspecified)          %    89.2
24    O=C(C(c1ccccc1)c1ccccc1)N(CCO)c1ccccc1          %    -4.2
25                    C[C@@H]1CN[C@@H](C)CN1          %   -17.4
